The measurements presented in this section are drawn from PubChem BioAssay AID179.

- Test system: CEM cells HIV-1 protection, formazan growth assay
- PROTOCOL_SUMMARY: NCI AIDS Antiviral Assay
- EXPERIMENTAL_SETUP: measured here: growth of uninfected CEM cells
Assignment: determine reported log10 of IC50 for the given compounds.
Reminder: these figures are log10 of reported IC50, in µM before transformation.

The recorded log10 of IC50 for entry CC(=O)c1sc(Nc2ccc(S(=O)(=O)Nc3nc(C)cc(C)n3)cc2)nc1C equals 2.05

Sure, the documented log10 of IC50 for CCCn1c(SCC)c2cc3cc4ccccc4cc3cc2c1-c1nc(F)nc(F)n1 is 1.35

Lab note: CC(=O)N(O)C(C)=O gave log10 of IC50 of 3.25

Form field log10 of IC50, entry CCN(CC)C(=S)SCn1nc(Cl)c2ccc([N+](=O)[O-])cc21 : 1.61

The compound listed as O=C1C(CN2CCOCC2)CCCC1CN1CCOCC1 (configuration not stated) has a reported log10 of IC50 of 0.13

Reported log10 of IC50 ( C#CCN(Cc1ccc2nc(OC)c(OC)nc2c1)c1cc(OC)c(OC)c(OC)c1 ) = 1.05

Consider CC(NC(=O)C(Cc1ccc(OC(=O)c2ccccc2)cc1)NC(=O)OC(C)(C)C)C(=O)NCC(=O)NC(Cc1ccccc1)NC(=O)OCc1ccccc1 (configuration not stated) . Its measured log10 of IC50 is 2.04

Input O=[N+]([O-])c1ccc(/C=c2\sc3scc(-c4ccc([N+](=O)[O-])cc4)[n+]3\c2=C/c2ccc([N+](=O)[O-])cc2)cc1 . Output log10 of IC50: 1.99

Record summary for O=C(CCN1CCCCC1)Nc1ccc2c(c1)C(=O)c1ccc(NC(=O)CCN3CCCCC3)cc1C2=O : reported log10 of IC50 = 0.27

The reported log10 of IC50 of the compound C[n+]1c(-c2ccc(/C=N\Nc3ccnc(N/N=C/c4ccc(-c5cn6ccsc6[n+]5C)cc4)n3)cc2)cn2ccsc21 was 1.46

The measured log10 of IC50 associated with CC(=O)OCC1OC(OC(C)=O)C(Nc2ncc(-c3ccc(C)cc3)s2)C(OC(C)=O)C1OC(C)=O (configuration not stated) reads 1.12

Lookup result for COc1cc(Cc2cc3c(c(C(=O)O)c2Br)OCO3)cc(OC)c1OC ; measured log10 of IC50: 1.65

Record CC1C2(C)OC(=N)C(C#N)(C(c3ccccc3)O2)C1(C#N)C#N (configuration not stated) , field log10 of IC50: 1.03

The compound Cc1cc2c(c(C)c1O)C(C)(C)CN2C(=O)C(C)(C)C showed log10 of IC50 equal to 1.87

GET /value?item= CCCCCCCCCCCCNC(=O)NCC(OCC)OCC &field=log10 of IC50 returns 1.50

---

- Tested on: CEM cells HIV-1 protection, formazan growth assay
- PROTOCOL_SUMMARY: NCI AIDS Antiviral Assay
- EXPERIMENTAL_SETUP: measured here: growth of uninfected CEM cells
ASSAY_READOUT: IC50 (µM)
Your answer should be a plain number; it is taken to be in µM.

Looking up C=CC12CN3C4C3C1C1(CCC42)C(=O)N(COCC[Si](C)(C)C)c2ccccc21 (configuration not stated) , I found its IC50 recorded as 25.7

Lab note: measured IC50 of N[C@H]1c2c(Br)sc(Br)c2C(=O)[C@H]1O was 7.59

Item: Oc1[nH]c2ccccc2c1N=Nc1nc(-c2ccc(Br)cc2)cs1 | IC50: 120

GET /value?item= Cc1cccc(NC(=S)N=Nc2c(O)[nH]c3ccccc23)c1 &field=IC50 returns 117

Measured IC50, CC(=O)OCC(OC(C)=O)C(OC(C)=O)C(C=NN(C(C)=O)S(=O)(=O)c1ccc(/C=C2\NC(=O)NC2=O)cc1)OC(C)=O (configuration not stated) : 97.7

Lab note: C/C(CC(=O)NCCc1ccccc1)=N\NS(=O)(=O)c1ccc(C)cc1 gave IC50 of 339

// sample O=S(=O)(O)c1cc(N=Nc2cc(S(=O)(=O)O)c3cccnc3c2O)ccc1/C=C/c1ccc(N=Nc2cc(S(=O)(=O)O)c3cccnc3c2O)cc1S(=O)(=O)O (tested in a mixture with another compound) , its IC50 was 50.1

Entry C=C1CN=C(Nc2ccc(Cl)cc2)S1 — recorded IC50 = 75.9

The reported value for O=S(=O)(SCCO)c1ccccc1 in terms of IC50 is 57.5

// IC50 lookup, compound = C/C(=N/NC(=S)N1CCCC1)c1cccc(/C(C)=N\NC(=S)N2CCCC2)n1 , result: 0.123

get_value(item= C/C(=C\CCC1=CC(=O)OC1)CC[C@@H]1[C@H]2C(=O)CC(C)[C@@]3(C)CC[C@]1(C)[C@@]23C (some centres not stated) , readout=IC50) returns 34.7

get_value(item= O=S(=O)([O-])[O-].O=c1[nH]cnc2[nH]ncc12.O=c1[nH]cnc2[nH]ncc12.[Zn+2] , readout=IC50) returns 155

Entry under test: COc1ccc(C2(c3ccc(OC)cc3)N=NC3(C)CC32)cc1 (configuration not stated) . Its IC50 was 89.1

The compound Clc1ccc(Nc2ncco2)cc1Cl showed IC50 equal to 107

Reported IC50 for CN(C)c1ccc(-c2c(C#N)c(-c3ccccc3)n(NS(=O)(=O)c3ccccc3)c(=O)c2C#N)cc1 was 13.2

Record O=C(Nc1ccc(Cl)c(C(F)(F)F)c1)C(=O)C(C(=O)/C=C/c1ccccc1)C1OC(=O)c2ccccc21 (configuration not stated) , field IC50: 20.9

Entry COc1cc(-c2ccc(N=Nc3cc(S(=O)(=O)O)c4cccc(S(=O)(=O)O)c4c3N)c(OC)c2)ccc1N=Nc1cc(S(=O)(=O)O)c2cccc(S(=O)(=O)O)c2c1N ; IC50 = 89.1

response.value for O=[N+]([O-])c1ccc2c(c1)N([O-])C1(CCCCC1)[N+]2=O (field: IC50) = 3.98

Notebook: CCCCCCCCCC(=O)CC(=O)c1ccc(O)cc1O , IC50 read as 69.2

// field: IC50; key: COc1ccc(Nc2nc3c(s2)c(C)c(O)c2ccccc23)cc1 ; value = 0.851

---

- Test system: CEM cells HIV-1 protection, formazan growth assay
- PROTOCOL_SUMMARY: NCI AIDS Antiviral Assay
Task for the reader: assign each of the following compounds its reported EC50.

// EC50 lookup, compound = CCc1n[nH]c(CC)c1CCCCCCOc1ccc(OC)cc1Cl , result: > 200 µM

# EC50 of O=[N+]([O-])/C(C(Cl)=C(Cl)Cl)=C(/Sc1ccccc1)N1CCOCC1 = > 200 µM

What the record says about Cc1ccccc1-n1c(SCC(=O)NC(=O)Nc2cccc(Cl)c2)nc2c(Br)cc(Br)cc2c1=O : EC50 is > 200 µM

Input CC1CCCC(C(=O)/C(=C/c2cccc(Cl)c2)C(=O)C(=O)O)C1 (stereo not given) . Output EC50: > 15.5 µM

Lab note: measured EC50 of COc1ccc(N2C(=O)[C@@H]3[C@@H]4CC(C)CC[C@@H]4c4c([nH]c5ccccc45)[C@@H]3C2=O)cc1 (stereo not given in full) was > 3.31 µM

---

- Test system: CEM cells HIV-1 protection, formazan growth assay
- PROTOCOL_SUMMARY: NCI AIDS Antiviral Assay
- EXPERIMENTAL_SETUP: measured here: growth of uninfected CEM cells
For each record, check the reported IC50: if it is below 50 µM write yes (1), else write no (0).

In plain terms, does COc1ccc(N2C(=O)CC(C3CC(C(C)(C)C)CCC3=O)C2=O)cc1 (stereo not drawn) come in under 50 µM for IC50? no (0)

Say whether its IC50 is strictly beneath 50 µM. Entry: CCCCc1c2c(nc3c1CC/C(=C\c1ccccc1)C3=O)CCCC2 yes (1)

For this molecule, is IC50 lower than 50 µM? c1cc(-c2nc(-c3ccncc3)nc(-c3ccncc3)n2)ccn1 no (0)

IC50 under 50 µM? Item: Nc1c(S)cc(O)c2c1C(=O)c1ccccc1C2=O no (0)

Could you please tell me whether IC50 recorded for C/C(CC(O)(C(F)(F)F)C(F)(F)F)=N\O is less than 50 µM? no (0)

Hello, I'm reviewing records and need to know if IC50 of CC12C(=O)NC(c3ccncc3)(c3ccccc31)C1C(=O)N(c3ccccc3)C(=O)C12 (stereo not drawn) is below 50 µM. Could you check? no (0)

Given the entry C=C([Si](C)(C)C)[Si](C)(C)C , would its reported IC50 be below 50 µM? no (0)

Lab note: confirm whether the reported IC50 for this molecule is below 50 µM, equality not counting. molecule: CN1c2c(C(=O)NCCCN3CCOCC3)nn(-c3cccc(C(F)(F)F)c3)c2-c2ccccc2S1(=O)=O no (0)

State whether 50 µM exceeds IC50 recorded for O=C(O)CC[C@]1(C(=O)O)NC(C(=O)O)Cc2[nH]cnc21 (stereo partly drawn) . no (0)

Does the reported IC50 of the following molecule sit strictly below 50 µM? O=C1N(CCO)C2=CCCCC23c2[nH]c4ccccc4c2CCN13 (stereo not drawn) no (0)

Threshold test, IC50 < 50 µM: Clc1ccc(Nc2nc(Cl)c3[nH]cnc3n2)cc1Cl no (0)

Determine whether this molecule shows IC50 lower than 50 µM (ties excluded): Cc1ccc(C(=O)O)cc1S(=O)(=O)Nn1cnc2ccc(S(=O)(=O)Nc3ccccc3C(=O)O)cc2c1=O no (0)

Input COc1ccc(C2S/C(=C\c3cccc(OC)c3)C(=O)N2NC(=O)Cc2ccccc2)cc1 (stereo not drawn) ; condition: IC50 strictly below 50 µM. Does it hold? no (0)

Does NS(=O)(=O)c1nnc(NC(=O)c2cccc([N+](=O)[O-])c2)s1 have IC50 strictly under 50 µM? no (0)

# TODO verify IC50 < 50 µM strictly for this molecule: C=CC[C@]1(C(C)C(OC(C)=O)c2ccc3c(c2)OCO3)C[C@@H](OC)C=CC1=O (stereo partly drawn) yes (1)

Report whether reported IC50 is lower than 50 µM (strictly) for COc1ccc2nc3cc([N+](=O)[O-])ccc3c(NCCCN(CCO)CCO)c2c1 yes (1)

Consider the molecule CCOC(=O)c1cn(CC)c2cc3c(cc2c1=O)CCS3(=O)=O . Is its IC50 strictly less than 50 µM? no (0)

Threshold test, IC50 < 50 µM: CCOC(=O)C(=C=Cc1cccs1)C(=O)c1ccccc1 no (0)

Bench note: check whether CN(C)C(=S)Oc1ccc2ccc(=O)oc2c1 shows IC50 below 50 µM no (0)

Input CC(=O)C1=CN=C2C(=O)N(c3ccccc3)N(C)C12C (stereo not drawn) ; condition: IC50 strictly below 50 µM. Does it hold? no (0)

Field: below-cutoff. Rule: recorded IC50 strictly less than 50 µM. Subject: CCOC(=O)c1cnn2c1ncc1c(=O)n(NC(N)=O)ccc12 no (0)

I wonder whether Cc1ccc(/C=C2/N=C(N/N=C\C(O)C(O)C(O)CO)NC2=O)cc1 (stereo not drawn) has IC50 below 50 µM. Can you tell? no (0)

Lab note: confirm whether the reported IC50 for this molecule is below 50 µM, equality not counting. molecule: CC(C)CNC(=O)CCc1cccc2c1oc1c(CCN)cccc12 yes (1)

Could you please tell me whether IC50 recorded for N#Cc1n[nH]n(-c2ccccc2)c1=O is less than 50 µM? no (0)

Is the reported IC50 for N/N=C(\N)c1ccc(NC(=O)c2ccc(C(=O)Nc3ccc(/C(N)=N/N)cc3)cc2)cc1 strictly below 50 µM? no (0)

Report whether reported IC50 is lower than 50 µM (strictly) for O=C1N/C(=C\[N+](=O)[O-])c2ccccc21 no (0)

# TODO verify IC50 < 50 µM strictly for this molecule: Cc1[nH]c(=O)nc(NCCNCCO)c1C(=O)Nc1cccc2cc3ccccc3cc12 no (0)

Below 50 µM on IC50? Entry O=C(c1ccco1)[N+]1=Cc2[nH]c3ccccc3c2CC1 no (0)

Does the reported IC50 of CC(=O)C(=Cc1cccc(F)c1)C(C)=O stay below 50 µM? no (0)

Threshold test, IC50 < 50 µM: CCCCCCCCCCCCCC(=O)OCC1OC(OC)C(NC(=O)N(CCCl)N=O)C(O)C1O (stereo not drawn) yes (1)

Confirm or reject: IC50 of O=[N+]([O-])c1ccc(OC2CC3C4C=CC3C2C4)c([N+](=O)[O-])c1 (stereo not drawn) lies strictly below 50 µM no (0)

In plain terms, does CCc1cc(-c2nsc(=O)o2)c(S(=O)(=O)CC)s1 come in under 50 µM for IC50? no (0)

Item N#CCCNCCN(CCN(C(=O)Nc1ccccc1)c1ccccc1)C(=O)Nc1ccccc1 : IC50 beneath 50 µM, strictly? no (0)

Answer whether the molecule Cc1cc(C)nc(NS(=O)(=O)c2ccc(NNC(=O)c3cccc4c(NNc5ccc(S(=O)(=O)Nc6nc(C)cc(C)n6)cc5)c5ccccc5nc34)cc2)n1 has IC50 strictly less than 50 µM yes (1)

# check: IC50 < 50 µM for O=C(O)C1COCN1C(=O)c1ccccc1SSc1ccccc1C(=O)N1COCC1C(=O)O (stereo not drawn) no (0)

Just wondering, is IC50 of O=C1CCC2(O1)c1ccc(O)cc1Oc1cc(O)ccc12 below 50 µM? no (0)

# TODO verify IC50 < 50 µM strictly for this molecule: C/C(=N\OC(=O)Nc1ccccc1)c1ccccc1 no (0)

Strictly below 50 µM: is that where IC50 of C1CCCN(NC2=NCCO2)CC1 sits? no (0)
